Test system: A498 renal
Test method notes: NCI tumour cell line growth inhibition, 48 h
Value kind: TGI (µM)
Supply the numeric figure in µM, leaving out any unit text.

Example entries begin here.
Compound	Value unit	TGI
O=C(/C(=C/c1ccc([N+](=O)[O-])cc1)c1ccccc1)c1ccccc1	µM	8.86
CN(C)CCNC(=O)c1cccc2c(NCC(=O)O)c3ccccc3nc12	µM	57.9
CCCCCCCCCCCCCCCCCC(=O)OCC(COC1OC(COP(=O)(O)O)C(O)C(O)C1O)OC(=O)CCCCCCCCCCCCCCCCC (stereo not given)	µM	12.5
CCN1CCC(CCOC)(CN2c3ccccc3Sc3ccc(Cl)cc32)C1 (stereo not given)	µM	7.39

Attention now shifts to the item below.
INPUT: Sample CC1=C(CCC(C)N(C)Cc2ccc(OCCCN3CCCC3)cc2)C(C)(C)CCC1 (stereo not given) — what was its TGI?
OUTPUT: 22.7

###

Test system: SNB-19 CNS
Test method notes: NCI tumour cell line growth inhibition, 48 h
Value kind: TGI

Example entries begin here.
> print(dat)
                                   compound  experimental.target  assay.result
1                    O=c1ccc2cc(O)c(O)cc2o1           SNB-19 CNS      > 100 µM
2  CCCCCCCCCCCCCCCCCC(=O)OCC(COC1OC(COP(=O)(O)O)C(O)C(O)C1O)OC(=O)CCCCCCCCCCCCCCCCC (stereo unspecified)           SNB-19 CNS       14.8 µM
3          COc1cc(OC)c(OC)cc1/C=N/N=C(\N)NO           SNB-19 CNS      > 100 µM

INPUT: Give SNB-19 CNS TGI for "COc1ccc2[nH]c3c(c2c1)CCn1c-3nc2ccccc2c1=O"
OUTPUT: > 25 µM

INPUT: Give SNB-19 CNS TGI for "C=CCOC(=O)/C(=C\c1ccc(OC)c(OC)c1)c1ccc(OC)c(OC)c1"
OUTPUT: > 100 µM

INPUT: Give SNB-19 CNS TGI for "CC(C)(C)c1ccc(OCCCCCCN2CCNCC2)cc1"
OUTPUT: 24.4 µM

###

The entries below come with measured TGI values attached.
Tested on: IGROV1 ovarian
Test method notes: NCI tumour cell line growth inhibition, 48 h

Example entries begin here.
Compound	TGI
Cc1cc(C)c(C2=NOC(c3ccccc3)(c3cc(=O)n(-c4ccccc4)s3)O2)c(C)c1 (configuration not stated)	> 100 µM
Cn1cnc2nc(Cl)nc(NC(C)(C)C(C)(C)O)c21	> 100 µM
CN(C)CCNc1nc(-c2ccc3ccccc3c2)nc2nc[nH]c12	15.4 µM
COc1cccc(C=Nc2cc(C)ccn2)c1O.COc1cccc(C=Nc2cc(C)ccn2)c1O.[Cu]	48.8 µM
COc1ccc(C2CC(c3cc(OC)c(OC)c(OC)c3)=NN2C(C)=O)cc1OCC(=O)Nc1nc2ccc(C(F)(F)F)cc2s1 (configuration not stated)	> 100 µM
O=c1[nH]c2ccccc2nc1-c1c[nH]c2ccccc12	> 100 µM

INPUT: Sample "Cc1cc2c(C)n(Cc3ccc(Cl)cc3Cl)nc2c(C#N)c1C" — what was its TGI?
OUTPUT: > 100 µM

INPUT: Sample "O=C(CN1CCNCCN(CC(=O)N2CCCCC2)CCNCC1)N1CCCCC1" — what was its TGI?
OUTPUT: > 100 µM

INPUT: Sample COC(=O)C1C(OC(=O)c2ccccc2)CC2CCC1N2C(N)=O (configuration not stated) — what was its TGI?
OUTPUT: > 100 µM

INPUT: Sample CC1C(O)C2(Oc3cc4c(c5c3[C@@H](CC5O)[C@H]2C)CCC2Cc3nc5c(nc3C[C@@]42C)CC2CCC3C4=C[C@H]6O[C@@]7(O[C@@](C)(CO)C[C@@H]7O)C(C)[C@@]6(O)[C@]4(C)[C@@H](O)CC3[C@]2(C)C5)OC1(C)C (some centres not stated) — what was its TGI?
OUTPUT: 0.894 µM

INPUT: Sample "O=C(O)C1(P(=O)(O)O)CC1" — what was its TGI?
OUTPUT: > 100 µM

INPUT: Sample "CCOC(=O)/C(C(=S)Nc1ccccc1)=C(/N)N1CCCC1" — what was its TGI?
OUTPUT: > 100 µM

INPUT: Sample "CC1=C2C(=O)c3ccccc3C(=O)[C@H]2[C@H]2CCO[C@H]2O1" — what was its TGI?
OUTPUT: 31.1 µM

INPUT: Sample "CC(C)(C)c1n[nH]c(=S)n(/N=C/c2ccc(F)c(Oc3ccccc3)c2)c1=O" — what was its TGI?
OUTPUT: > 100 µM

INPUT: Sample "[N-]=[N+]=Nc1c(-c2ccccc2)c(Cl)nc2ccccc12" — what was its TGI?
OUTPUT: > 100 µM

INPUT: Sample "CC(=O)Nc1ccccc1SCCSSCCSc1ccccc1NC(C)=O" — what was its TGI?
OUTPUT: 46.8 µM

INPUT: Sample COc1nc2c(c(=O)n1C)N(C(C)=O)C1C(N2)OCC(OC(C)=O)C1OC(C)=O (configuration not stated) — what was its TGI?
OUTPUT: > 10 µM

INPUT: Sample "O=c1ccc2cc(O)c(O)cc2o1" — what was its TGI?
OUTPUT: > 100 µM

INPUT: Sample "CC1(C)CC(=O)c2c(nc3ccc4ccccc4c3c2-c2ccc(NC(=O)CCCC(=O)Nc3ccc(-c4c5c(nc6ccc7ccccc7c46)CC(C)(C)CC5=O)cc3)cc2)C1" — what was its TGI?
OUTPUT: > 100 µM

INPUT: Sample "CC1(C)CS(=O)(=O)CC(C)(C)C(=N/N)/C1=N\N" — what was its TGI?
OUTPUT: > 100 µM

INPUT: Sample Fc1ccc2nc3n(c2c1)C(c1c(F)cccc1F)SC3 (configuration not stated) — what was its TGI?
OUTPUT: > 100 µM

INPUT: Sample "CN(C)CCCNc1ccc2ncn3c4ccccc4c(=O)c1c23" — what was its TGI?
OUTPUT: 33 µM
